Reference for the values: patent US8754220B2

System under test: acetylcholine muscarinic M1 receptor (CHOnfat/hM1 cells) (Homo sapiens, UniProt P11229)
Construct: expressed in transfected cells; host or cells: CHOnfat (CHO cells; selected with Geneticin)
Sequence (P11229 whole entry): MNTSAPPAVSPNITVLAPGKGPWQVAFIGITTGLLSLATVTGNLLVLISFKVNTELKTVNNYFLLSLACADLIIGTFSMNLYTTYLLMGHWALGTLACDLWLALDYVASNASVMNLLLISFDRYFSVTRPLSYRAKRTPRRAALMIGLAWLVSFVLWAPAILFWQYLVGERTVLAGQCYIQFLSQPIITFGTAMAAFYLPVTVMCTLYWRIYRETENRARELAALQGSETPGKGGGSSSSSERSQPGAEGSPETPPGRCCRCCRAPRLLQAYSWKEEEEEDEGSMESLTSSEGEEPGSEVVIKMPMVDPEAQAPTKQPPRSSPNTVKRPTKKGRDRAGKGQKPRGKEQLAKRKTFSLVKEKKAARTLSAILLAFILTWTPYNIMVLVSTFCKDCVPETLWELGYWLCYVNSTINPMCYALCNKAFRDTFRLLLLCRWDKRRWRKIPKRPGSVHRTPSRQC
Experiment: FLIPR intracellular calcium assay for M1 positive allosteric modulator activity (acetylcholine EC20)
Type: cell-based
EC50 reference

| Compound | System under test | Uom | EC50 |
| --- | --- | --- | --- |
| N#CC1(c2ncc(Br)cc2Br)CCN(Cc2cc(C(=O)N[C@H]3CCOC[C@@H]3O)c(=O)n3ccccc23)CC1 | acetylcholine muscarinic M1 receptor (CHOnfat/hM1 cells) (Homo sapiens, UniProt P11229) | nM | 14 |
| N#CC1(c2ccccc2Br)CCN(Cc2cc(C(=O)N[C@H]3CCCC[C@@H]3O)c(=O)n3ccccc23)CC1 | acetylcholine muscarinic M1 receptor (CHOnfat/hM1 cells) (Homo sapiens, UniProt P11229) | nM | 24 |
| N#CC1(c2ccccn2)CCN(Cc2cc(C(=O)N[C@H]3CCOC[C@@H]3O)c(=O)n3ccccc23)CC1 (racemic) | acetylcholine muscarinic M1 receptor (CHOnfat/hM1 cells) (Homo sapiens, UniProt P11229) | nM | 25 |
| N#CC1(c2cc(C(F)F)ccn2)CCN(Cc2cc(C(=O)N[C@H]3CCCC[C@@H]3O)c(=O)n3ccccc23)CC1 | acetylcholine muscarinic M1 receptor (CHOnfat/hM1 cells) (Homo sapiens, UniProt P11229) | nM | 25 |
